Apparent hydration activity normalized for biomass, OhyA Q265A/T436A/N438A reference
molecular target: OhyA Q265A/T436A/N438A (Elizabethkingia meningoseptica, UniProt C7DLJ6, N438A/Q265A/T436A); construct: His tag with TEV site by the vector name (HISTEV); expressed in transfected cells; host or cells: E. coli BL21 Star (DE3); assay: Whole cell E. coli biotransformation, hydration of oleic acid and derivatives by mutant OhyA Q265A/T436A/N438A; type: cell-based; conditions: whole cell E. coli biocatalyst, 2 mM substrate, 30° C., pH 6.0
Sequence (C7DLJ6 whole entry Q265A/T436A/N438A): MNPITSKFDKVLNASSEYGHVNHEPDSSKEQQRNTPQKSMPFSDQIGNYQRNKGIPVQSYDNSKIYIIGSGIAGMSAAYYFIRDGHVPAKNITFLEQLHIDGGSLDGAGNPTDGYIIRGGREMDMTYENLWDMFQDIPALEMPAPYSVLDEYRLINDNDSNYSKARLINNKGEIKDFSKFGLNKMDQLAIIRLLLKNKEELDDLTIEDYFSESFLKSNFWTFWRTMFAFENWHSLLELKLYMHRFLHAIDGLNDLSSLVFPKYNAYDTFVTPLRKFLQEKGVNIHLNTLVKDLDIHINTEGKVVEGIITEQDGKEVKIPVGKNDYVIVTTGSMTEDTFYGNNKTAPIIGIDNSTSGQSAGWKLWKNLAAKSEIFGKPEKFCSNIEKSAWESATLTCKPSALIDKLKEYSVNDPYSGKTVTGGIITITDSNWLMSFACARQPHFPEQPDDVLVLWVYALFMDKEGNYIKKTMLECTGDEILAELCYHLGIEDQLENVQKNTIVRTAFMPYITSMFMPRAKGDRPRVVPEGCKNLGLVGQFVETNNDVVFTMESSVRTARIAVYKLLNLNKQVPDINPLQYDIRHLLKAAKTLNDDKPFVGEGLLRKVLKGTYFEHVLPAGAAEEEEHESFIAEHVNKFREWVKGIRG
Numbers only; they are read as mU g^−1 CDW.

See these solved cases before continuing.
compound | data-value
CCCCCCCC/C=C\CCCCCCCC(=O)OC(C)C [Entry 8, i-propyl oleate] | 1.5
CCCCCCCC/C=C\CCCCCCCC(N)=O [Entry 3, oleamide] | 10.7
CCCCCCCC/C=C\CCCCCCCC(=O)NO [Entry 4, N-hydroxy oleamide] | 13.4
CCCCCCCC/C=C\CCCCCCCC(=O)OCCCC [Entry 10, n-butyl oleate] | 0.8

Known value: OhyA Q265A/T436A/N438A (Elizabethkingia meningoseptica, UniProt C7DLJ6, N438A/Q265A/T436A) Apparent hydration activity normalized for biomass, OhyA Q265A/T436A/N438A of the compound CCCCCCCC/C=C\CCCCCCCC(=O)OCC [Entry 7, ethyl oleate] equals 1.7

* * *

Apparent hydration activity normalized for biomass, OhyA Q265A/T436A/N438A reference
target: OhyA Q265A/T436A/N438A (Elizabethkingia meningoseptica, UniProt C7DLJ6, N438A/Q265A/T436A); construct: His tag with TEV site by the vector name (HISTEV); expressed in transfected cells; host or cells: E. coli BL21 Star (DE3); test: Whole cell E. coli biotransformation, hydration of oleic acid and derivatives by mutant OhyA Q265A/T436A/N438A; type: cell-based; conditions: whole cell E. coli biocatalyst, 2 mM substrate, 30° C., pH 6.0

See these solved cases before continuing.
molecule | data-value
CCCCCCCC/C=C\CCCCCCCC(=O)OC [Entry 6, methyl oleate] | 2.5 ± 0.2 mU g^−1 CDW
CCCCCCCC/C=C\CCCCCCCC(=O)OCCC [Entry 9, n-propyl oleate] | 0.9 ± 0.1 mU g^−1 CDW
CCCCCCCC/C=C\CCCCCCCC(=O)O [Entry 1, oleic acid] | 28.4 ± 0.3 mU g^−1 CDW

Read the next record carefully.
The value of Apparent hydration activity normalized for biomass, OhyA Q265A/T436A/N438A measured for the molecule CCCCCCCC/C=C\CCCCCCCCO [Entry 5, oleyl alcohol] turned out to be 15.5 ± 1.0 mU g^−1 CDW

* * *

Apparent hydration activity normalized for biomass, OhyA WT reference
target: OhyA wild type (WT) (Elizabethkingia meningoseptica, UniProt C7DLJ6); construct: His tag with TEV site by the vector name (HISTEV); expressed in transfected cells; host or cells: E. coli BL21 Star (DE3); assay: Whole cell E. coli biotransformation, hydration of oleic acid and derivatives by OhyA wild type; type: cell-based; settings: whole cell E. coli biocatalyst, 2 mM substrate, 30° C., pH 6.0
Sequence (C7DLJ6 whole entry): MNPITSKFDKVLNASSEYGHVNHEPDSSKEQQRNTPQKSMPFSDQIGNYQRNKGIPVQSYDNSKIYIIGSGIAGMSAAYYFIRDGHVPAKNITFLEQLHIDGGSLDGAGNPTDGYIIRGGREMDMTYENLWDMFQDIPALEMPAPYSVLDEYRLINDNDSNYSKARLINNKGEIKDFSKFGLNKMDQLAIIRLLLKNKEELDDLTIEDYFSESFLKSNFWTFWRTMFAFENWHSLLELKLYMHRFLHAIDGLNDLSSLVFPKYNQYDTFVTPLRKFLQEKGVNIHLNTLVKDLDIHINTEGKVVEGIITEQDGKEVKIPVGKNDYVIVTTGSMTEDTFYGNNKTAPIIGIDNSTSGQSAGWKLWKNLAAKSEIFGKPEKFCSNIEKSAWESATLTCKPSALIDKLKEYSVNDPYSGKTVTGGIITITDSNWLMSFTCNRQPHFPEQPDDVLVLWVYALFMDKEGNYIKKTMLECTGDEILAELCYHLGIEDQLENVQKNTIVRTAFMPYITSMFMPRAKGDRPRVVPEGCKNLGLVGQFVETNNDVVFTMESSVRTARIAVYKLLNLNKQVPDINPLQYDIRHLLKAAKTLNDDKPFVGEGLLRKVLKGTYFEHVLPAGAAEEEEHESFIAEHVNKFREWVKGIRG

See these solved cases before continuing.
compound | data-value
CCCCCCCC/C=C\CCCCCCCC(N)=O [Entry 3, oleamide] | 11.1 ± 0.7 mU g^−1 CDW
CCCCCCCC/C=C\CCCCCCCC(=O)NO [Entry 4, N-hydroxy oleamide] | 3.4 ± 0.7 mU g^−1 CDW
CCCCCCCC/C=C\CCCCCCCC(=O)OCCCC [Entry 10, n-butyl oleate] | 0.1 ± 0.1 mU g^−1 CDW

The value of Apparent hydration activity normalized for biomass, OhyA WT measured for the compound `CCCCCCCC/C=C\CCCCCCCC(=O)O` turned out to be 26.3 ± 0.2 mU g^−1 CDW

The value of Apparent hydration activity normalized for biomass, OhyA WT measured for the compound CCCCCCCC/C=C\CCCCCCCC(=O)OC(C)C [Entry 8, i-propyl oleate] turned out to be 0.1 ± 0.1 mU g^−1 CDW

The value of Apparent hydration activity normalized for biomass, OhyA WT measured for the compound CCCCCCCC/C=C\CCCCCCCC(=O)OC [Entry 6, methyl oleate] turned out to be 0.3 ± 0.1 mU g^−1 CDW

Data provenance: patent US20210222144A1
